- experimental.system: Estrogen receptor (Homo sapiens) (UniProt P03372)
- Sequence (P03372 whole entry, looked up): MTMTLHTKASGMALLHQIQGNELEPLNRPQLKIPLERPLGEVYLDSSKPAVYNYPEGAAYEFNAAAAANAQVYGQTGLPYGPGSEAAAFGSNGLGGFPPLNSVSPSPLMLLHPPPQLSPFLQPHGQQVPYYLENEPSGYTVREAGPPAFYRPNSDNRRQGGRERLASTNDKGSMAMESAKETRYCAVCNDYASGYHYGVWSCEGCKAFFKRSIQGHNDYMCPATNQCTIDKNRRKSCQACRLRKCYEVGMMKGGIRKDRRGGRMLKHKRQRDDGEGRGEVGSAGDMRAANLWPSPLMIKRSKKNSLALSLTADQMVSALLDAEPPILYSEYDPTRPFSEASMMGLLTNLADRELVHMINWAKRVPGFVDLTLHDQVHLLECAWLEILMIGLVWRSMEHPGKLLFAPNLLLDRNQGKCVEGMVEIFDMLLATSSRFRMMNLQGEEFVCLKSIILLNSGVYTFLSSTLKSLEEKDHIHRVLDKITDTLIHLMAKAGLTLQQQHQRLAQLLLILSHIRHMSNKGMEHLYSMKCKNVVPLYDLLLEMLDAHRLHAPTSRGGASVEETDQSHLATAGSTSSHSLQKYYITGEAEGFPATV
- method.notes: ERalpha-driven PIP3 reporter nuclear translocation, orthogonal assay for ERalpha ligand project, imaging, Cos7 ERalpha-GFP, PH-RFP reporter (AID 1226)
- run.conditions: at 10 µM, active compounds read high
Records with an inconclusive call do not appear. The source made the active and inactive calls.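 Rule for the calls: active = score of 100, fluorescent reporter fully moved to nucleus as with estrogen, or estrogen effect fully blocked; inactive = score of 0 or 50, partial or no effect.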
Provide the reported translocation response score of each item.

INPUT: Item "Cc1cc(C)c2c(c1)[C@@H]1C=CC[C@@H]1[C@H](c1ccc(S(=O)(=O)N3CCOCC3)cc1)N2" has what recorded translocation response score?
OUTPUT: 100

INPUT: Item "O=C(O)c1cc(Cl)c2c(c1)[C@@H]1C=CC[C@@H]1[C@H](c1ccc(S(=O)(=O)N3CCOCC3)cc1)N2" has what recorded translocation response score?
OUTPUT: 50 (inactive)

INPUT: Item O=C(O)c1ccc2c(c1)C1C(Cl)C(Sc3ccccc3[N+](=O)[O-])CC1C(c1cccc([N+](=O)[O-])c1)N2 (stereo not drawn) has what recorded translocation response score?
OUTPUT: 0 (inactive)

INPUT: Item Nc1ncnc2c1ncn2C1CCC(CO)C(O)C1 (stereo not drawn) has what recorded translocation response score?
OUTPUT: 100

INPUT: Item "Cc1cc(-c2nn3c(-c4ccccc4)nnc3s2)c2ccccc2n1" has what recorded translocation response score?
OUTPUT: 100

INPUT: Item Brc1cc2c(cc1C1Nc3ccccc3C3C=CCC31)OCO2 (stereo not drawn) has what recorded translocation response score?
OUTPUT: 0 (inactive)

INPUT: Item "COc1ccccc1N1CCN(C(=O)c2ccc3nc(-c4ccco4)c(-c4ccco4)nc3c2)CC1" has what recorded translocation response score?
OUTPUT: 50 (inactive)

INPUT: Item COc1cccc(NS(=O)(=O)c2ccc3c(c2)C2C=CCC2C(c2ccc(C(=O)O)cc2)N3)c1 (stereo not drawn) has what recorded translocation response score?
OUTPUT: 50 (inactive)

Reference source: PubChem BioAssay AID1226
